- System: UO-31
- Protocol summary: NCI tumour cell line growth inhibition, 48 h
Calls of active or inactive are those of the source. No stated cut-off is given here; in the data, active = GI50 up to about 1.1 µM and inactive = higher.
Could you please pick one outcome from this set? active, inactive

Below are worked cases with known answers.
CCC(C(=O)O)c1ccc(OCc2ccccc2)cc1 (centres undefined): inactive
CCOC(=O)C(C(=O)OCC)=C1NC2(c3ccccc3Nc3ccccc32)C(C#N)S1 (centres undefined): inactive
COC(=O)C(Cc1ccccc1)NS(=O)(=O)c1ccc(-c2c3nc(c(-c4ccc(S(=O)(=O)NC(Cc5ccccc5)C(=O)OC)cc4)c4ccc([nH]4)c(-c4ccc(S(=O)(=O)NC(Cc5ccccc5)C(=O)OC)cc4)c4nc(c(-c5ccc(S(=O)(=O)NC(Cc6ccccc6)C(=O)OC)cc5)c5ccc2[nH]5)C=C4)C=C3)cc1 (centres undefined): inactive

What did this assay record as the result for CC12CCCCC1=C(F)C(F)(F)S2 (centres undefined) ?
inactive
